tested on: Staphylococcus sp.; test: In vitro antibacterial evaluation: minimum inhibitory concentration (MIC), broth dilution method; format: cell-based; settings: broth dilution, 18 hours at 35° C.
Observed Property: MIC Staphylococcus aureus (ATCC 29213) (µg/mL)
Quick note: give the figure in µg/mL, leave out the unit.

CC(C)=CCCC(C)=CCN=C1NCC(C(O)C2NC(=O)C(C(O)C3CNC(=N)N3)NC(=O)C(Cc3ccc(OC4OC(CO)C(OC5OC6COC7(OC6C(O)C5O)C5CC6CC(C5)CC7C6)C(O)C4O)cc3)NC(=O)C(C(C)c3ccccc3)NC(=O)CNC(=O)C(CO)NC2=O)N1C1OC(CO)C(O)C(O)C1O (centres unmarked); 8

Then this molecule:
The molecule listed as CC(c1ccccc1)C1NC(=O)CNC(=O)C(CO)NC(=O)C(CC2CN(Cc3ccccc3)C(=N)N2C2OC(CO)C(O)C(O)C2O)NC(=O)C(CC2CNC(=N)N2)NC(=O)C(Cc2ccc(OC3OC(CO)C(OC4OC5COC6(OC5C(O)C4O)C4CC5CC(C4)CC6C5)C(O)C3O)cc2)NC1=O (centres unmarked) has a reported MIC Staphylococcus aureus (ATCC 29213) of 32

###

Reported MIC Staphylococcus aureus (GC 4541) values follow for various compounds
test system: Staphylococcus sp.; assay: In vitro antibacterial evaluation: minimum inhibitory concentration (MIC), broth dilution method; format: cell-based; settings: Staphylococcus aureus (GC 4541); 18 hours at 35° C.
Quick note: give the figure in µg/mL, leave out the unit.

Solved entries:
COc1ccc(COCC2OC(OC3C(CO)OC(Oc4ccc(CC5NC(=O)C(C(C)c6ccccc6)NC(=O)CNC(=O)C(CO)NC(=O)C(C(O)C6CNC(=N)N6C6OC(CO)C(O)C(O)C6O)NC(=O)C(C(O)C6CNC(=N)N6)NC5=O)cc4)C(O)C3O)C(O)C(O)C2O)cc1F (stereo not drawn); 2
CC(C)CCC(=O)OC1C(OC2C(CO)OC(Oc3ccc(CC4NC(=O)C(C(C)c5ccccc5)NC(=O)CNC(=O)C(CO)NC(=O)C(C(O)C5CNC(=N)N5C5OC(CO)C(O)C(O)C5O)NC(=O)C(C(O)C5CNC(=N)N5)NC4=O)cc3)C(O)C2O)OC(CO)C(O)C1O (stereo not drawn) [Example 270a]; 4
CC(c1ccccc1)C1NC(=O)CNC(=O)C(CO)NC(=O)C(C(O)C2CNC(=N)N2C2OC(CO)C(O)C(O)C2O)NC(=O)C(C(O)C2CNC(=N)N2)NC(=O)C(Cc2ccc(OC3OC(CO)C(OC4OC(CO)C(OCC=Cc5ccc(N(C)C)cc5)C(O)C4O)C(O)C3O)cc2)NC1=O (stereo not drawn) [Example 243a]; 32

The compound listed as COc1ccc2cc(COC3C(OC4C(CO)OC(Oc5ccc(CC6NC(=O)C(C(C)c7ccccc7)NC(=O)CNC(=O)C(CO)NC(=O)C(C(O)C7CNC(=N)N7C7OC(CO)C(O)C(O)C7O)NC(=O)C(C(O)C7CNC(=N)N7)NC6=O)cc5)C(O)C4O)OC(CO)C(O)C3O)ccc2c1 (stereo not drawn) [Example 230c] has a reported MIC Staphylococcus aureus (GC 4541) of 64

The compound listed as CC(c1ccccc1)C1NC(=O)CNC(=O)C(CO)NC(=O)C(C(O)C2CNC(=N)N2C2OC(CO)C(O)C(O)C2O)NC(=O)C(C(O)C2CNC(=N)N2)NC(=O)C(Cc2ccc(OC3OC(CO)C(OC4OC(COC(=O)NCc5ccccc5)C(O)C(O)C4O)C(O)C3O)cc2)NC1=O (stereo not drawn) [Example 257b] has a reported MIC Staphylococcus aureus (GC 4541) of 0.5

The compound listed as CCOc1cc(COCC2OC(OC3C(CO)OC(Oc4ccc(CC5NC(=O)C(C(C)c6ccccc6)NC(=O)CNC(=O)C(CO)NC(=O)C(C(O)C6CNC(=N)N6C6OC(CO)C(O)C(O)C6O)NC(=O)C(C(O)C6CNC(=N)N6)NC5=O)cc4)C(O)C3O)C(O)C(O)C2O)ccc1OC (stereo not drawn) has a reported MIC Staphylococcus aureus (GC 4541) of 4

The compound listed as CC(c1ccccc1)C1NC(=O)CNC(=O)C(CO)NC(=O)C(C(O)C2CNC(=N)N2C2OC(CO)C(O)C(O)C2O)NC(=O)C(C(O)C2CNC(=N)N2)NC(=O)C(Cc2ccc(OC3OC(CO)C(OC4OC(COCc5cccs5)C(O)C(O)C4O)C(O)C3O)cc2)NC1=O (stereo not drawn) has a reported MIC Staphylococcus aureus (GC 4541) of 8

The compound listed as CC(C)CC(=O)OCC1OC(OC2C(CO)OC(Oc3ccc(CC4NC(=O)C(Cc5ccccc5)NC(=O)CNC(=O)C(CO)NC(=O)C(C(O)C5CNC(=N)N5C5OC(CO)C(O)C(O)C5O)NC(=O)C(C(O)C5CNC(=N)N5)NC4=O)cc3)C(O)C2O)C(O)C(O)C1O (stereo not drawn) [Example 283c] has a reported MIC Staphylococcus aureus (GC 4541) of 32

The compound listed as COc1ccc(COCC2OC(OC3C(CO)OC(Oc4ccc(CC5NC(=O)C(C(C)c6ccccc6)NC(=O)CNC(=O)C(CO)NC(=O)C(C(O)C6CNC(=N)N6C6OC(CO)C(O)C(O)C6O)NC(=O)C(C(O)C6CNC(=N)N6)NC5=O)cc4)C(O)C3O)C(O)C(O)C2O)cc1OCc1ccccc1 (stereo not drawn) has a reported MIC Staphylococcus aureus (GC 4541) of 4

The compound listed as CC(C)CC(=O)OC1C(O)C(CO)OC(OC2C(CO)OC(Oc3ccc(CC4NC(=O)C(C(C)c5cccc(F)c5)NC(=O)CNC(=O)C(CO)NC(=O)C(C(O)C5CNC(=N)N5C5OC(CO)C(O)C(O)C5O)NC(=O)C(C(O)C5CNC(=N)N5)NC4=O)cc3)C(O)C2O)C1O (stereo not drawn) [Example 264b] has a reported MIC Staphylococcus aureus (GC 4541) of 8

###

tested on: Staphylococcus sp.; assay: In vitro antibacterial evaluation: minimum inhibitory concentration (MIC), broth dilution method; type: cell-based; details: strain GC 4549
Observed Property: MIC Coagulase Negative Staphylococcus (GC 4549) (µg/mL)
Quick note: give the figure in µg/mL, leave out the unit.

The compound listed as CC(c1ccccc1)C1NC(=O)CNC(=O)C(CO)NC(=O)C(C(O)C2CNC(=N)N2C2OC(CO)C(O)C(O)C2O)NC(=O)C(C(O)C2CNC(=N)N2)NC(=O)C(Cc2ccc(OC3OC(CO)C(OC4OC5COC6(CCCCC6)OC5C(O)C4O)C(O)C3O)cc2)NC1=O (centres unmarked) [Example 203] has a reported MIC Coagulase Negative Staphylococcus (GC 4549) of 1

###

Reported MIC Coagulase Negative Staphylococcus (GC 6257) values follow for various compounds
system: Staphylococcus sp.; test: In vitro antibacterial evaluation: minimum inhibitory concentration (MIC), broth dilution method; type: cell-based; settings: strain GC 6257; broth dilution, 18 hours at 35° C.
Quick note: give the figure in µg/mL, leave out the unit.

The compound listed as CCC(CC)C1OCC2OC(OC3C(CO)OC(Oc4ccc(CC5NC(=O)C(C(C)c6ccccc6)NC(=O)CNC(=O)C(CO)NC(=O)C(C(O)C6CNC(=N)N6C6OC(CO)C(O)C(O)C6O)NC(=O)C(C(O)C6CNC(=N)N6)NC5=O)cc4)C(O)C3O)C(O)C(O)C2O1 (stereo not shown) [Example 116] has a reported MIC Coagulase Negative Staphylococcus (GC 6257) of 0.5

The compound listed as CC(c1ccccc1)C1NC(=O)CNC(=O)C(CO)NC(=O)C(C(O)C2CNC(=N)N2C2OC(CO)C(O)C(O)C2O)NC(=O)C(C(O)C2CNC(=N)N2)NC(=O)C(Cc2ccc(OC3OC(CO)C(OC4OC5COC(c6ccc(S(C)(=O)=O)cc6)OC5C(O)C4O)C(O)C3O)cc2)NC1=O (stereo not shown) [Example 157] has a reported MIC Coagulase Negative Staphylococcus (GC 6257) of 4

The compound listed as COc1cccc(C2OC3C(OC4C(CO)OC(Oc5ccc(CC6NC(=O)C(C(C)c7ccccc7)NC(=O)CNC(=O)C(CO)NC(=O)C(C(O)C7CNC(=N)N7C7OC(CO)C(O)C(O)C7O)NC(=O)C(C(O)C7CNC(=N)N7)NC6=O)cc5)C(O)C4O)OC(CO)C(O)C3O2)c1 (single isomer, unassigned) [Example 137a] has a reported MIC Coagulase Negative Staphylococcus (GC 6257) of 8

###

test system: Enterococcus sp.; assay: In vitro antibacterial evaluation: minimum inhibitory concentration (MIC), broth dilution method; type: cell-based; conditions: broth dilution, 5×10^5 CFU/mL, 18 hours at 35° C.
Observed Property: MIC Enterococcus faecalis (GC 2242) (µg/mL)
Quick note: give the figure in µg/mL, leave out the unit.

Solved entries:
CC(c1ccccc1)C1NC(=O)CNC(=O)C(CO)NC(=O)C(C(O)C2CNC(=N)N2C2OC(CO)C(O)C(O)C2O)NC(=O)C(C(O)C2CNC(=N)N2)NC(=O)C(Cc2ccc(OC3OC(CO)C(OC4OC(CO)C(O)C5OC(CC67CC8CC(CC(C8)C6)C7)OC45)C(O)C3O)cc2)NC1=O (stereo not shown); 4
Cc1ccc(CC2OCC3OC(OC4C(CO)OC(Oc5ccc(CC6NC(=O)C(C(C)c7ccccc7)NC(=O)CNC(=O)C(CO)NC(=O)C(C(O)C7CNC(=N)N7C7OC(CO)C(O)C(O)C7O)NC(=O)C(C(O)C7CNC(=N)N7)NC6=O)cc5)C(O)C4O)C(O)C(O)C3O2)cc1 (stereo not shown); 2
CCCC(C)C1OCC2OC(OC3C(CO)OC(Oc4ccc(CC5NC(=O)C(C(C)c6ccccc6)NC(=O)CNC(=O)C(CO)NC(=O)C(C(O)C6CNC(=N)N6C6OC(CO)C(O)C(O)C6O)NC(=O)C(C(O)C6CNC(=N)N6)NC5=O)cc4)C(O)C3O)C(O)C(O)C2O1 (stereo not shown); 1

The compound listed as CCCCCC1OCC2OC(OC3C(CO)OC(Oc4ccc(CC5NC(=O)C(C(C)c6ccccc6)NC(=O)CNC(=O)C(CO)NC(=O)C(C(O)C6CNC(=N)N6C6OC(CO)C(O)C(O)C6O)NC(=O)C(C(O)C6CNC(=N)N6)NC5=O)cc4)C(O)C3O)C(O)C(O)C2O1 (stereo not shown) has a reported MIC Enterococcus faecalis (GC 2242) of 2

The compound listed as N=C1NCC(C(O)C2NC(=O)C(Cc3ccc(OC4OC(CO)C(OC5OC6COC7(OC6C6OC8(OC56)C5CC6CC(C5)CC8C6)C5CC6CC(C5)CC7C6)C(O)C4O)cc3)NC(=O)C(CC3CCCCC3)NC(=O)CNC(=O)C(CO)NC(=O)C(C(O)C3CNC(=N)N3C3OC(CO)C(O)C(O)C3O)NC2=O)N1 (stereo not shown) [Example 106b] has a reported MIC Enterococcus faecalis (GC 2242) of 8

The compound listed as CCCC(CCC)C(=O)OCC1OC(OC2C(CO)OC(Oc3ccc(CC4NC(=O)C(C(C)c5ccccc5)NC(=O)CNC(=O)C(CO)NC(=O)C(C(O)C5CNC(=N)N5C5OC(CO)C(O)C(O)C5O)NC(=O)C(C(O)C5CNC(=N)N5)NC4=O)cc3)C(O)C2O)C(O)C(O)C1O (stereo not shown) [Example 99c] has a reported MIC Enterococcus faecalis (GC 2242) of 4
